molecular target: T1, human GPC3 on cells (human, UniProt P51654 25-554); assay: FACS, GPC3-CHOK1 cells
T1 construct: whole, on cells; over-expressed on CHOK1 cells or endogenous on HEPG2, Hep3B and Huh-7 hepatocellular carcinoma cells; the cell line is named under assay; also called GPC3-CHOK1 cells; human GPC3 over-expressed CHOK1 cells
Reported property: EC50 (µg/mL)
API: value field is a number in µg/mL; no unit string.

Below: 9 binders and their reported EC50.
Binder	Reported property	Experimental value
Hu 52H5D3B8-9 (antibody, V domains shown, humanized 52H5D3B8; also called 52H5D3B8 VH4 + VL0) VH: EVQLVQSGAEVKKPGASVKVSCKASGYTFTDYEMHWVRQAPGQGLEWIGAIHPGSGGTAYNQKFKGRVTLTADKSISTAYMELSRLRSDDTAVYYCTRFYSYAYWGQGTLVTVSS VL: DVVMTQTPLSLSVTPGQPASISCRSSQSLVHSNGNTYLQWYLQKPGQSPQLLIYKVSNRFSGVPDRFSGSGSGTDFTLKISRVEAEDVGVYYCSQSIHVPYTFGGGTKVEIK	EC50	0.0572
Hu 52H5D3B8-3 (antibody, V domains shown, humanized 52H5D3B8; also called 52H5D3B8 VH1 + VL0) VH: EVQLVQSGAEVKKPGASVKVSCKASGYTFTDYEMHWVRQAPGQGLEWMGAIHPGSGGTAYNQKFKGRVTMTRDTSISTAYMELSRLRSDDTAVYYCTRFYSYAYWGQGTLVTVSS VL: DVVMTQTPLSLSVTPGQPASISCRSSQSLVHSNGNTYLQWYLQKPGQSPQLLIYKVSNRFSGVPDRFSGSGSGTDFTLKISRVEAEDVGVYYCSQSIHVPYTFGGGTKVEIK	EC50	0.0387
Hu 52H5D3B8-8 (antibody, V domains shown, humanized 52H5D3B8; also called 52H5D3B8 VH3 + VL1) VH: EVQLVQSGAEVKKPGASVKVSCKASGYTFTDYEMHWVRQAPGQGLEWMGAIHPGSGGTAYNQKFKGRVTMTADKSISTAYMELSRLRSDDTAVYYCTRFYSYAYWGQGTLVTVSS VL: DVVMTQTPLSLSVTPGQPASISCRSSQSLVHSNGNTYLQWYLQKPGQSPQLLIYKVSNRFSGVPDRFSGSGSGTDFTLKISRVEAEDVGVYFCSQSIHVPYTFGGGTKVEIK	EC50	0.0432
Hu 52H5D3B8-7 (antibody, V domains shown, humanized 52H5D3B8; also called 52H5D3B8 VH3 + VL0) VH: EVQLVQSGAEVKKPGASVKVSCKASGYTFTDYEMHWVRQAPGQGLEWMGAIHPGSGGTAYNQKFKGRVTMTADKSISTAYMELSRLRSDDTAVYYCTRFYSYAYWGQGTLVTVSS VL: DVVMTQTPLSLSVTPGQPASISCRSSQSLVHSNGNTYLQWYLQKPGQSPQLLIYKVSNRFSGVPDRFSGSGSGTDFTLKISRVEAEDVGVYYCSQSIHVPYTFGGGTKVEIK	EC50	0.0447
Hu 52H5D3B8-5 (antibody, V domains shown, humanized 52H5D3B8; also called 52H5D3B8 VH2 + VL0) VH: EVQLVQSGAEVKKPGASVKVSCKASGYTFTDYEMHWVRQAPGQGLEWMGAIHPGSGGTAYNQKFKGRVTMTADTSISTAYMELSRLRSDDTAVYYCTRFYSYAYWGQGTLVTVSS VL: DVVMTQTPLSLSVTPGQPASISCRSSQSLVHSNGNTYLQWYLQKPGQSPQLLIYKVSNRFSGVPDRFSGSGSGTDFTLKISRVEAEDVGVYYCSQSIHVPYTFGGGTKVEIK	EC50	0.0544
Hu 52H5D3B8-1 (antibody, V domains shown, humanized 52H5D3B8; also called 52H5D3B8 VH0 + VL0) VH: EVQLVQSGAEVKKPGASVKVSCKASGYTFTDYEMHWVRQAPGQGLEWMGAIHPGSGGTAYNQKFKGRVTMTRDTSISTAYMELSRLRSDDTAVYYCARFYSYAYWGQGTLVTVSS VL: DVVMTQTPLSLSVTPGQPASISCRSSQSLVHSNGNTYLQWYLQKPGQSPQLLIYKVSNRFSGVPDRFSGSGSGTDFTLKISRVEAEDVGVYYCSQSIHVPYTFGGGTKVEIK	EC50	0.0404
Hu 52H5D3B8-6 (antibody, V domains shown, humanized 52H5D3B8; also called 52H5D3B8 VH2 + VL1) VH: EVQLVQSGAEVKKPGASVKVSCKASGYTFTDYEMHWVRQAPGQGLEWMGAIHPGSGGTAYNQKFKGRVTMTADTSISTAYMELSRLRSDDTAVYYCTRFYSYAYWGQGTLVTVSS VL: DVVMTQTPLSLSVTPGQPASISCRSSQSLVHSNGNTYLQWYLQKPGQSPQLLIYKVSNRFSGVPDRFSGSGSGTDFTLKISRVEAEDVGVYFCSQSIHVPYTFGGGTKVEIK	EC50	0.0509
Hu 52H5D3B8-4 (antibody, V domains shown, humanized 52H5D3B8; also called 52H5D3B8 VH1 + VL1) VH: EVQLVQSGAEVKKPGASVKVSCKASGYTFTDYEMHWVRQAPGQGLEWMGAIHPGSGGTAYNQKFKGRVTMTRDTSISTAYMELSRLRSDDTAVYYCTRFYSYAYWGQGTLVTVSS VL: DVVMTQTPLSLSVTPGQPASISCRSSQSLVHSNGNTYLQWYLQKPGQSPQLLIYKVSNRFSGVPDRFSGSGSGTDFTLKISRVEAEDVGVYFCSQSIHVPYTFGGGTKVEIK	EC50	0.0324
Hu 52H5D3B8-2 (antibody, V domains shown, humanized 52H5D3B8; also called 52H5D3B8 VH0 + VL1) VH: EVQLVQSGAEVKKPGASVKVSCKASGYTFTDYEMHWVRQAPGQGLEWMGAIHPGSGGTAYNQKFKGRVTMTRDTSISTAYMELSRLRSDDTAVYYCARFYSYAYWGQGTLVTVSS VL: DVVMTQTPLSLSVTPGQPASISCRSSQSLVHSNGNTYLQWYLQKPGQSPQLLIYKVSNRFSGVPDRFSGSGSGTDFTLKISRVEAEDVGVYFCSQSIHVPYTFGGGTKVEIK	EC50	0.0338

Now, please, on to the next binder.
Any idea what its EC50 is? The binder is 52H5D3B8 chimeric mAb (antibody, V domains shown, also called 52H5D3B8-VH+VL; chimeric 52H5D3B8 mAb) VH: QVQLQQSGAELVRPGASVKLSCKALGYTFTDYEMHWVKQTPVHGLEWIGAIHPGSGGTAYNQKFKGKATLTADKFSSTGYMELSSLTSEDSAVYYCTRFYSYAYWGQGTLVTVSA VL: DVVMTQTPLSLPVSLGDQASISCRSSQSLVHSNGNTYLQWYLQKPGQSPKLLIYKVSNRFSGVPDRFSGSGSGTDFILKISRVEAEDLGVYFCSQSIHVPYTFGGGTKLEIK
0.0477
